# assay.system: T1, alphaEbeta7 on alphaEbeta7-transfected 293 cells (human, UniProt P38570 19-1179; P26010 20-798)
# T1 construct: whole, on cells; also called alphaEbeta7 293 cells
# T1 sequence (P38570 19-1179, chain 1 of 2): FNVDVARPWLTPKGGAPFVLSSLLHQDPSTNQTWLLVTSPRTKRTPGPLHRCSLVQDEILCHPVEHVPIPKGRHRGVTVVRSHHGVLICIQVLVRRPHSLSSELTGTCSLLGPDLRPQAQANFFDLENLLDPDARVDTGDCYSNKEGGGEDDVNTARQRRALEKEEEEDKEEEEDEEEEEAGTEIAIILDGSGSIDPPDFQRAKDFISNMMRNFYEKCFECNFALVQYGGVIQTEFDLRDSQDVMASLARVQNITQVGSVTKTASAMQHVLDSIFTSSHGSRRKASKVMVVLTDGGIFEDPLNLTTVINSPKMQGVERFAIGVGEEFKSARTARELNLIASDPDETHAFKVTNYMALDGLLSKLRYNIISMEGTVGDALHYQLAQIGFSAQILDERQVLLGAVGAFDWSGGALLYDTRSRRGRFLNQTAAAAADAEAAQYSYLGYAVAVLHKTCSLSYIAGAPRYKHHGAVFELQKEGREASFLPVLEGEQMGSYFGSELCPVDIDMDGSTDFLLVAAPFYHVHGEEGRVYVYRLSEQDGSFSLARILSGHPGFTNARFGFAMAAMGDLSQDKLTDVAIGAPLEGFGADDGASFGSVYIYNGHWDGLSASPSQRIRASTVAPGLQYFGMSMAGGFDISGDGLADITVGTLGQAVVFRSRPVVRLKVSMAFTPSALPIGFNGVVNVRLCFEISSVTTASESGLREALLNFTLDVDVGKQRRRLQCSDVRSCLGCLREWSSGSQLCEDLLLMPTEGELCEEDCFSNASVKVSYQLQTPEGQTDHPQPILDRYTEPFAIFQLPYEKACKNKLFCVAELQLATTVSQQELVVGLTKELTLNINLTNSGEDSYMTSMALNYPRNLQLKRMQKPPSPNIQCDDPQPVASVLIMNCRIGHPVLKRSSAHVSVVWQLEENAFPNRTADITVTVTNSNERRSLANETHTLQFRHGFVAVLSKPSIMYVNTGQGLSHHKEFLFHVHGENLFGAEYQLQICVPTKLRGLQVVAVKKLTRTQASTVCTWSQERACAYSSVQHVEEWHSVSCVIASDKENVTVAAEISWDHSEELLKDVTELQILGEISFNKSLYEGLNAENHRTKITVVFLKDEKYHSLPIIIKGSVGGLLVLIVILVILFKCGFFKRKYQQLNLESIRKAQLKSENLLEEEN
# T1 sequence (P26010 20-798, chain 2 of 2): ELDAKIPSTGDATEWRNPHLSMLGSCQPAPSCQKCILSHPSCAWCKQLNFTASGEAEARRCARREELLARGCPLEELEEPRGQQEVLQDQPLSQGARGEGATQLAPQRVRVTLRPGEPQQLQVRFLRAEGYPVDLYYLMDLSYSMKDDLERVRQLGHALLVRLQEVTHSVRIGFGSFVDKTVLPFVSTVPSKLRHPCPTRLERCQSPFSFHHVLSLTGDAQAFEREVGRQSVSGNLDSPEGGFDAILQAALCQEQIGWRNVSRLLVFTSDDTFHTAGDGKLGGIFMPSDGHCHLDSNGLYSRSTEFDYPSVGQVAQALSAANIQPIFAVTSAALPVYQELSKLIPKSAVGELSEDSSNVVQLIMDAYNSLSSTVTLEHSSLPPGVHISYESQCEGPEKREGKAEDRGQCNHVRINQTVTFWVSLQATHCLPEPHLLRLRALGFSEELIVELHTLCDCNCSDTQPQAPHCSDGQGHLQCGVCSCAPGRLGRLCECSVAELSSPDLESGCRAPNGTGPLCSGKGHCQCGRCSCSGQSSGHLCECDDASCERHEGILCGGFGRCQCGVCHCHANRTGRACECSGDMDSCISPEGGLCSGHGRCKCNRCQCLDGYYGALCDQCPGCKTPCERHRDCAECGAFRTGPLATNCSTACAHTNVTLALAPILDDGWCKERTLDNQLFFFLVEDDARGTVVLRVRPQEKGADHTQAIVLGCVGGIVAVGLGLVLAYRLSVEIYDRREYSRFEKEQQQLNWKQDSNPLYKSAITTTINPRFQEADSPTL
# assay.overview: cell adhesion inhibition, alphaEbeta7 293 cells on coated huE-Cadherin, experiment 1 of 3
# Protocol: After blocking the plates with 200 ul/well of 5 mg/ml BSA for one hour at room temperature, 50 μl of humanized Fib504 variants in assay media (RPMI 1640 media, Hyclone®, Logan Utah, USA, supplemented with 5 mg/mL BSA) were added to each well and 150,000 BCECF-labeled cells (BCECF, Molecular Probes, Eugene, Oreg.) in 50 μl of assay media were added to each well and incubated for 15 minutes at 37° C. The wells were washed two times with 150 μl of assay media to remove unbound cells. […]
Provide the reported IC90 of each item.
One number for each entry, in nM.

Example entries begin here.
1. Variant hu504.32, IgG (antibody, V domains shown, methionine at heavy chain position 94; also called hu504.32M; 504.32M) VH: EVQLVESGGGLVQPGGSLRLSCAASGFFITNNYWGWVRQAPGKGLEWVGYISYSGSTSYNPSLKSRFTISRDTSKNTFYLQMNSLRAEDTAVYYCAMTGSSGYFDFWGQGTLVTVSS VL: DIQMTQSPSSLSASVGDRVTITCRASESVDDLLHWYQQKPGKAPKLLIKYASQSISGVPSRFSGSGSGTDFTLTISSLQPEDFATYYCQQGNSLPNTFGQGTKVEIKR :: 8.8
2. Variant hu504.5, IgG (antibody, name in Kabat numbering, V domains shown) VH: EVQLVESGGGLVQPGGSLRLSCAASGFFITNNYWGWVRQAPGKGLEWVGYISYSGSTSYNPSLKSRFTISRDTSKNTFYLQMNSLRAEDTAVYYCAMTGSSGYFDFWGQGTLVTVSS VL: DIQMTQSPSSLSASVGDRVTITCRASESVDSLLHWYQQKPGKAPKLLIKYASQSISGVPSRFSGSGSGTDFTLTISSLQPEDFATYYCQQGNSLPNTFGQGTKVEIKR :: 7.99

# batch: return IC90 for each of the 2 binders below
1. Rat Fib504 (antibody FIB504.64 produced by hybridoma ATCC HB-293) (antibody, V domains shown, Whole rat antibody in the cell adhesion assays; also called rat anti-mouse beta7 antibody) VH: EVQLQESGPGLVKPSQSLSLTCSVTGFFITNNYWGWIRKFPGNKMEWMGYISYSGSTSYNPSLKSRISITRDTSKNQFFLQLNSVTTEDTATYYCAMTGSSGYFDFWGPGTMVTVSS VL: DVVMTQSPATLSVTPGERISLSCRASESVDTYLHWYQQKPNESPRLLIKYASQSISGIPSRFSGSGSGTDFTLSINGVELEDLSIYYCQQGNSLPNTFGAGTKLELKR
2. Variant hu504.16, IgG (antibody, name in Kabat numbering, V domains shown) VH: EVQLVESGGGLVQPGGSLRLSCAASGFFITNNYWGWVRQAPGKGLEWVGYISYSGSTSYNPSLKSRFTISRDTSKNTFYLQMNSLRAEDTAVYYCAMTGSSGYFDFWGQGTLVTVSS VL: DIQMTQSPSSLSASVGDRVTITCRASESVDTLLHWYQQKPGKAPKLLIKYASQSISGVPSRFSGSGSGTDFTLTISSLQPEDFATYYCQQGNSLPNTFGQGTKVEIKR

8.8
7.03
